Target: CDK7/Cyclin H/MNAT1 (Homo sapiens, UniProt P50613)
Sequence (P50613 whole entry): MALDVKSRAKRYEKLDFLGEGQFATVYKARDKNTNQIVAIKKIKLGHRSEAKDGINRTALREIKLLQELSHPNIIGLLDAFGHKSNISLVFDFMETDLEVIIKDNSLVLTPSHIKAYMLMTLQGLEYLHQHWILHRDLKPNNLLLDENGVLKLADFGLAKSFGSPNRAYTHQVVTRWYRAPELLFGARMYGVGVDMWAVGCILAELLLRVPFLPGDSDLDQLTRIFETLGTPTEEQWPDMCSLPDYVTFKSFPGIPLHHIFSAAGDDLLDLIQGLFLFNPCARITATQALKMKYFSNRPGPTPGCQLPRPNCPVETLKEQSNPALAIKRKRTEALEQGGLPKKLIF
Sequence (P51946 whole entry partner): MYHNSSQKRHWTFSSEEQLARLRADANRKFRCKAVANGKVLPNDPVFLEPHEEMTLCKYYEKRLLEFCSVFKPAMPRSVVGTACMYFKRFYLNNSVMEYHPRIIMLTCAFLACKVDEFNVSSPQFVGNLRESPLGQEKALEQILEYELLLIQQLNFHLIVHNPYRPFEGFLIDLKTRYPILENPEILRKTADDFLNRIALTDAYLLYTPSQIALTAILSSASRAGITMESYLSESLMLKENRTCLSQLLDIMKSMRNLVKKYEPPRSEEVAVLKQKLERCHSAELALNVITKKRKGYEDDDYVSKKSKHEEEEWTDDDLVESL
Sequence (P51948 whole entry partner): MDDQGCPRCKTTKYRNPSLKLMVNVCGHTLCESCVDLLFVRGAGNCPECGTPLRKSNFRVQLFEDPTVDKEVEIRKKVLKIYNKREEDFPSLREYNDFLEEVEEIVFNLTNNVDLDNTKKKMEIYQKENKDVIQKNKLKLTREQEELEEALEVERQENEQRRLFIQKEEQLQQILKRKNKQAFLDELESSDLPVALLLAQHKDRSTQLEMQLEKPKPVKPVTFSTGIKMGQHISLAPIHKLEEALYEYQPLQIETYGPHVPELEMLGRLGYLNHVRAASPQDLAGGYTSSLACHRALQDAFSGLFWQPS
Assay: Enzymatic assay for CDK7 (LANCE Ultra kinase assay, FRET based)
Settings: ATP at Km
pIC50: −log10 of the molar value.
observable: pIC50

// known answers, use as guide
{"compound": "CC(C)c1cnn2c(NCc3ccccc3-c3nccc4cc(NC(=O)/C=C/CN(C)C)ccc34)cc(C(F)(F)F)nc12 [Compound 204]", "pIC50": "> 7.00"}
{"compound": "C=C(F)C(=O)Nc1ccc2c(-c3ccccc3CNc3cc(NCC4CNCCO4)nc4c(C(C)C)cnn34)nccc2c1 (centres unmarked) [Compound 94]", "pIC50": "> 7.00"}
{"compound": "CC(C)c1cnn2c(NCc3ccccc3-c3nccc4cc(NC(=O)/C=C/CN5CCCCC5)ccc34)nc(NC[C@H]3CCNC[C@@H]3O)nc12 [Compound 76]", "pIC50": "> 7.00"}
{"compound": "C=CC(=O)Nc1ccc2c(-c3ccccc3CNc3nc(-c4ccncc4)nc4c(C(C)C)cnn34)nccc2c1 [Compound 201]", "pIC50": "> 7.00"}
{"compound": "C/C=C/C(=O)Nc1cccc2cc(-c3cccc(C)c3CNc3nc(NC[C@H]4CCNC[C@@H]4O)nc4c(C(C)C)cnn34)[nH]c12 [Compound 73]", "pIC50": "> 7.00"}

For record CC(C)c1cnn2c(NCc3ccccc3-c3cc4cccc(NC(=O)/C=C/CN(C)C)c4[nH]3)nc(N3CCC(Nc4nccs4)C3)nc12 (centres unmarked) [Compound 216] the listed pIC50 is 6.00 to 7.00

For record CC(C)c1cnn2c(NCc3ccccc3-c3nccc4cc(NC(=O)/C=C/CN(C)C)ccc34)nc(N3CCC(O)C3)nc12 (racemic) [Compound 37] the listed pIC50 is 6.00 to 7.00

* * *

System: H460
Test: Cellular H460 viability assay (CellTiter-Glo, 72 hours)
Assay type: cell-based
Settings: Homo sapiens, NCI-H460; H460 cells
pIC50: −log10 of the molar value.
observable: pIC50

// known answers, use as guide
{"input_smiles": "C=CC(=O)Nc1cccc(Oc2ccccc2CNc2nc(N3CCC(N)CC3)nc3c(C(C)C)cnn23)c1", "measured_target": "H460", "pIC50": "> 6.00"}
{"input_smiles": "CC(C)c1cnn2c(NCc3ccccc3-c3ccc4cccc(NC(=O)/C=C/CN(C)C)c4n3)nc(N3CCC(N)CC3)nc12", "measured_target": "H460", "pIC50": "> 6.00"}

Lab note: next compound to report on.
For record "CC(C)c1cnn2c(NCc3cccc(-c4cc5cc(NC(=O)/C=C/CN(C)C)ccc5[nH]4)c3)nc(N3CCC(N)CC3)nc12" the listed pIC50 is 5.00 to 6.00

* * *

Target: CDK7/Cyclin H/MNAT1 (Homo sapiens, UniProt P50613)
Experiment: Enzymatic assay for CDK7 (LANCE Ultra kinase assay, FRET based)
Conditions: ATP at Km
pIC50: −log10 of the molar value.
Measured pIC50 values are reported for all entries that follow.

{"molecule": "CC(C)c1cnn2c(NCc3ccccc3-c3nccc4cc(NC(=O)/C=C/CN(C)C)ccc34)nc(N3CCC(CO)CC3)nc12 [Compound 29]", "pIC50": "6.00 to 7.00"}

For record C=C(F)C(=O)Nc1ccc2c(-c3ccccc3CNc3nc(-c4cccc(OC5CCNC5)c4)nc4c(C(C)C)cnn34)nccc2c1 (racemic) [Compound 87] the listed pIC50 is > 7.00

For record CC(C)c1cnn2c(NCc3ccccc3-c3nccc4cc(NC(=O)/C=C/CN(C)C)ccc34)nc(N[C@H]3CC[C@H](O)CC3)nc12 [Compound 27] the listed pIC50 is > 7.00

For record CC(C)c1cnn2c(NCc3ccccc3-c3nccc4cc(NC(=O)/C=C/CN(C)C)ccc34)nc(NC3CCS(=O)(=O)CC3)nc12 [Compound 107] the listed pIC50 is 6.00 to 7.00

For record CC(C)c1cnn2c(NCc3ccccc3-c3nccc4cc(NC(=O)/C=C/CN(C)C)ccc34)nc(NCCC(C)(C)O)nc12 [Compound 35] the listed pIC50 is > 7.00

For record CC(C)c1cnn2c(NCc3ccccc3-c3nccc4cc(NC(=O)C5=CCCC5)ccc34)nc(NC[C@H]3CCNC[C@@H]3O)nc12 [Compound 65] the listed pIC50 is > 7.00
